- System: P388 leukemia ip, CD2F1 mice, survival T/C
- run.description: NCI In Vivo Anticancer Drug Screen. Data for tumor model P388 Leukemia (intraperitoneal) in CD2F1 (CDF1) mice
- condition.description: endpoint: median survival time; dose: 60.0 mg/kg/injection; schedule: Q01DX005 (ip); vehicle: saline with Tween-80; higher = longer survival
Toxic doses and inconclusive results are not listed.
Listed here are compounds together with their documented T/C.

Worked examples, 4 compounds total:
Query block: Missing value: T/C, P388 leukemia ip, CD2F1 mice, survival T/C, entry O=C1c2cc3c(cc2C(=O)c2cc(-c4ccccc4)c(-c4ccccc4)cc21)OCO3 . Fill in?
Result block: 92 % of control

Query block: Missing value: T/C, P388 leukemia ip, CD2F1 mice, survival T/C, entry CC1=CC2=C(C#N)C(=O)OC2(C)C(c2ccccc2)C1 (stereo not given) . Fill in?
Result block: 100 % of control

Query block: Missing value: T/C, P388 leukemia ip, CD2F1 mice, survival T/C, entry C[C@H](CCC1=NC(C)(C)CO1)C1CCC2[C@@H]3C(O)C[C@@H]4CC(O)CC[C@]4(C)C3CC[C@@]21C (stereo not given in full) . Fill in?
Result block: 90 % of control

Query block: Missing value: T/C, P388 leukemia ip, CD2F1 mice, survival T/C, entry OC(CN(Cc1nc2ccccc2[nH]1)Cc1nc2ccccc2[nH]1)CN(Cc1nc2ccccc2[nH]1)Cc1nc2ccccc2[nH]1 . Fill in?
Result block: 115 % of control

Shift focus to the following entry.
Query block: Missing value: T/C, P388 leukemia ip, CD2F1 mice, survival T/C, entry COc1ccc(C(O)C2CC(=O)NN=C2C)cc1OC (stereo not given) . Fill in?
Result block: 100 % of control

---

- Test system: P388 leukemia ip, CD2F1 mice, survival T/C
- run.description: NCI In Vivo Anticancer Drug Screen. Data for tumor model P388 Leukemia (intraperitoneal) in CD2F1 (CDF1) mice
- condition.description: endpoint: median survival time; dose: 100.0 mg/kg/injection; schedule: Q01DX005 (ip); vehicle: Klucel (hydroxypropylcellulose) (HPC); higher = longer survival
Inconclusive results and toxic doses are left out. Peptide text beside a SMILES is read from it. * marks the point of attachment. Boc = CC(C)(C)OC(=O)*; NHNH2 = NN*
quantity.kind: T/C

Worked examples, 3 molecules total:
Query block: Value lookup for T/C; key = CC1Cc2ccccc2/C1=N/NC(N)=O (stereo unspecified)
Result block: 100 % of control

Query block: Value lookup for T/C; key = COc1cc(C2c3cc4c(cc3C(O)C(CO)C2CO)OCO4)cc(OC)c1OC (stereo unspecified)
Result block: 97 % of control

Query block: Value lookup for T/C; key = COc1ccccc1/C=C/C(=O)c1ccccc(=O)c1O
Result block: 100 % of control

Next:
Query block: Value lookup for T/C; key = O=C1CCOCCCOCCC(=O)OCCCO1
Result block: 101 % of control

Query block: Value lookup for T/C; key = CC(C)(C)OC(=O)NC(Cc1ccccc1)C(=O)NC(CO)C(=O)NN (stereo not drawn) (Boc-Phe-Ser-NHNH2; configuration not given here)
Result block: 95 % of control

Query block: Value lookup for T/C; key = COc1ccc(C)cc1N=NC1C(=O)N(C(=O)CC(=O)Nc2ccccc2Cl)N=C1C (stereo unspecified)
Result block: 95 % of control
